Assay: physchem
Conditions: sodium lactate buffer, pH 5, aqueous buffer
endpoint.name: solubility (µg/mL)
The reply should contain only the number, in µg/mL.

solubility recorded for this molecule, COc1ccc2[nH]c3c(c2c1)CCN[C@]31CS[C@@H]2c3c(OC(C)=O)c(C)c4c(c3[C@H](COC1=O)N1[C@@H]2[C@H]2c3c(cc(C)c(OC)c3O)C[C@@H]([C@@H]1O)N2C)OCO4 [lurbinectedin, Lurbinectedin] , is 30
